experimentalDetails: The drug is tested on Bacteroides finegoldii strain: DSM17565 for biotransformation. The drug concentrations were measured before and after a 12-h incubation by liquid-chromatography-coupled mass spectrometry (LC–MS)
protocolConditions: 2 µM
metric: Bacterial Biotransformation

COc1cc(NC(C)CCCN)c2ncccc2c1.O=P(O)(O)O.O=P(O)(O)O (centres undefined) [PRIMAQUINE PHOSPHATE] :: Compound metabolized
CCN(CC)CCNC(C(=O)OCCC(C)C)c1ccccc1.Cl.Cl (centres undefined) :: Compound NOT metabolized
CC(NC(C)(C)C)C(=O)c1cccc(Cl)c1 (centres undefined) :: Compound NOT metabolized
COC(=O)C1=C(C)NC(C)=C(C(=O)OC(C)C)C1c1cccc2nonc12 (centres undefined) :: Compound NOT metabolized
CCCc1nn(C)c2c(=O)[nH]c(-c3cc(S(=O)(=O)N4CCN(C)CC4)ccc3OCC)nc12.O=C(O)CC(O)(CC(=O)O)C(=O)O [SILDENAFIL CITRATE] :: Compound NOT metabolized

Asked: Looking for the measured Bacterial Biotransformation of CNCCC(Oc1ccc(C(F)(F)F)cc1)c1ccccc1 (centres undefined) , can you help?
Given back: Compound NOT metabolized

Asked: What does the data say about its Bacterial Biotransformation? Entry: `Fc1ccc([C@@H]2CCNC[C@H]2COc2ccc3c(c2)OCO3)cc1`
Given back: Compound metabolized

Asked: Consider the compound COc1ccccc1OCCNCC(O)COc1cccc2[nH]c3ccccc3c12 (centres undefined) and give its measured Bacterial Biotransformation.
Given back: Compound metabolized

Asked: Please give the measured Bacterial Biotransformation for this compound: `COc1ccc(/C=C/C(=O)Nc2ccccc2C(=O)O)cc1OC`
Given back: Compound metabolized

---

experimentalDetails: The drug is tested on Bacteroides vulgatus strain: ATCC8482 for biotransformation. The drug concentrations were measured before and after a 12-h incubation by liquid-chromatography-coupled mass spectrometry (LC–MS)
protocolConditions: phocaeicola vulgatus, 2 µM
metric: Bacterial Biotransformation

Below, each entry is followed by its recorded Bacterial Biotransformation result.
CC(Oc1c(Cl)cccc1Cl)C1=NCCN1 (configuration not stated) [LOFEXIDINE] :: Compound metabolized
COc1ccc2cc([C@H](C)C(=O)O)ccc2c1 [NAPROXEN] :: Compound NOT metabolized
CC[C@@H](CO)NC(=O)[C@@H]1C=C2c3cccc4c3c(cn4C)C[C@H]2N(C)C1.O=C(O)/C=C\C(=O)O [METHYSERGIDE MALEATE] :: Compound metabolized
Cc1ccccc1C(OCCN(C)C)c1ccccc1.O=C(O)CC(O)(CC(=O)O)C(=O)O (configuration not stated) [ORPHENADRINE CITRATE] :: Compound NOT metabolized
CS(=O)(=O)O.O.O.O.O=C1Cc2cc(CCN3CCN(c4nsc5ccccc45)CC3)c(Cl)cc2N1 [ZIPRASIDONE MESYLATE] :: Compound metabolized
C=CC[C@@H]1/C=C(\C)C[C@H](C)C[C@H](OC)[C@H]2O[C@@](O)(C(=O)C(=O)N3CCCC[C@H]3C(=O)O[C@H](/C(C)=C/[C@@H]3CC[C@@H](O)[C@H](OC)C3)[C@H](C)[C@@H](O)CC1=O)[C@H](C)C[C@@H]2OC.O [TACROLIMUS] :: Compound NOT metabolized

From here, focus on the item given below.
Asked: Entry O=P(O)(O)O.c1ccc(CN(CC2=NCCN2)c2ccccc2)cc1 [ANTAZOLINE PHOSPHATE] : reported Bacterial Biotransformation = ?
Given back: Compound NOT metabolized

Origin of the recorded values: ChEMBL document CHEMBL5303573
